target: Chromo domain-containing protein 1 (Saccharomyces cerevisiae (strain ATCC 204508 / S288c) (Baker's yeast)) (UniProt P32657); assay: ScCHD-1 Enzyme Inhibition Assay; assay type: functional; design: scale not given: in the data most compounds retested in dose-response had high values; conditions: 30 µM
Sequence (P32657 whole entry, the tested form may be a part): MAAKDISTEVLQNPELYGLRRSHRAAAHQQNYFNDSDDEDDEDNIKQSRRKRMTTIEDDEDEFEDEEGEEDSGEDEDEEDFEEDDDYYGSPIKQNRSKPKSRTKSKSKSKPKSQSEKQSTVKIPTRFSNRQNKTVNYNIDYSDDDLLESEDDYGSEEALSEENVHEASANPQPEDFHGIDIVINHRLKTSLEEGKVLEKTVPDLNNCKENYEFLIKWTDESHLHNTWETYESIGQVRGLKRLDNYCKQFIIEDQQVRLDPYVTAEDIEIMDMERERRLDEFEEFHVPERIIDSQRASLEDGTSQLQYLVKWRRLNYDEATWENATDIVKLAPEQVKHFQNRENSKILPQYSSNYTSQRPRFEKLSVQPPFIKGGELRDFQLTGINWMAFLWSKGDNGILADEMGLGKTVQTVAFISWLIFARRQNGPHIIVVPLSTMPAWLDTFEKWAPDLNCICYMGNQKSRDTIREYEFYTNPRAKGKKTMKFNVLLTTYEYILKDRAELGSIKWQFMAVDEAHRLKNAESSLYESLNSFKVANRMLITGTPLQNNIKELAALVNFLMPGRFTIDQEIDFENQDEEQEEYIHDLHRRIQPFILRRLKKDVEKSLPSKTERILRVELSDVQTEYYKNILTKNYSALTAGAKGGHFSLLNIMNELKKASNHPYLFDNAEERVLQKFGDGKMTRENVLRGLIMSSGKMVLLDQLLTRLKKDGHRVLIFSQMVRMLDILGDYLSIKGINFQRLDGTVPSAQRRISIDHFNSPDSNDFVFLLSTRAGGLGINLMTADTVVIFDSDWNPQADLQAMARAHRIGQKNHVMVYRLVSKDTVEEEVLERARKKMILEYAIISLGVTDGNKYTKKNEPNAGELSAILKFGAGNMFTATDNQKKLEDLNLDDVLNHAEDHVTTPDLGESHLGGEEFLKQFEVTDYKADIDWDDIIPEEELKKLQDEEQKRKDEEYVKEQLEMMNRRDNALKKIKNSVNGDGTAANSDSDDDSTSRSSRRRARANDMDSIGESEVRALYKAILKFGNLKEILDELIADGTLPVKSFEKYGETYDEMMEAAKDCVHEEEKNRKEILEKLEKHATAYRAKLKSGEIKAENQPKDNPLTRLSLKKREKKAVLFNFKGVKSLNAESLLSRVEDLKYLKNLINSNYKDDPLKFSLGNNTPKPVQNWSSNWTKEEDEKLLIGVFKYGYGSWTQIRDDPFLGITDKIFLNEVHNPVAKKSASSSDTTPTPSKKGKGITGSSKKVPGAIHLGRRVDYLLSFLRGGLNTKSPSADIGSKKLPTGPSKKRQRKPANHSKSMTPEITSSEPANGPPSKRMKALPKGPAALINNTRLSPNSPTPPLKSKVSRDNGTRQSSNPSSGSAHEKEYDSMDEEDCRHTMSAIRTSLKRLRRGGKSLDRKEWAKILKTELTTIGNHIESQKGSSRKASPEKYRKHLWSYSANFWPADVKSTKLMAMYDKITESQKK
reported metric: Percent Effect (%)
Give bare numbers, in %.

Could you report Percent Effect for every entry in the following list?
1. Cc1nn(C)c(C)c1C1CCCN1C(=O)CCNc1ncccn1 (stereo not given)
2. Cc1ccc(C(=O)Nc2cc(C(C)C)n[nH]2)cn1

Reply:
1: -4.96; 2: -5.01

Items follow; give Percent Effect for each.
1. COc1ccc(OC)c(C2C3=C(COC3=O)Nc3[nH]nc(C)c32)c1 (stereo not given)
2. CC(C)Oc1cc(N2CCC(N3CCC(O)CC3)CC2)nc(N)n1
3. Brc1cc2c(cc1CN1CCC(N3CCCCC3)CC1)OCCO2

Reply:
[-11.1, -4.42, -2.58]

* * *

biological target: Arginase-2, mitochondrial (Homo sapiens); assay: in vitro enzyme assay to detect the production of urea directly proportional to the activity of Arginase II; format: functional; design: scale not given: in the data most compounds retested in dose-response had high values; conditions: 33.3 µM
Please go through the items and note down their Percent Effect.
Answers are plain numbers, in %.

compound: CC(C)Cc1noc(CN2CCCC(Cn3cncn3)C2)n1 (configuration not stated)
Percent Effect, %: 2.03

Record Percent Effect per entry; entries follow.
1. CC(C)NC(=O)Cn1cc(-c2ccccc2)cn1
2. Cn1ccnc1CN1CCC2(CC1)CN(CC1CC1)C(=O)CO2
3. Cn1ccnc1-c1cccc(NC(=O)NCCCO)c1
4. O=C(COc1cccc2c1CCC2=O)NCCSc1ccccc1
5. Cc1ccccc1-c1cncc(C2CCN(C)CC2)n1
6. CNC(=O)c1cccc(CNC(=O)C2CC(=O)N(CCN(C)C)C2)c1 (configuration not stated)

Reply:
1: 3.23; 2: -1.94; 3: 19.4; 4: 10.7; 5: -1.62; 6: -1.04

* * *

test system: Trypanosoma cruzi; test: Trypanosoma cruzi phosphomannomutase and mannose-1-phosphate guanylyltransferase assay; format: functional; set-up: scale not given: direction of the effect not stated beside the values; settings: 10 µM
Kindly supply the reported Percent Effect values for the records listed here.
Give bare numbers, in %.

// known answers, use as guide
compound: COc1ccc(C(=O)N2CCCC(C)C2)cc1F (configuration not stated)
system name: Trypanosoma cruzi
Percent Effect (%): 2.17
//
compound: Cc1oc(C(=O)O)cc1S(=O)(=O)Nc1ccc(Cl)c(F)c1
system name: Trypanosoma cruzi
Percent Effect (%): -5.24
//
compound: CCN(CC(=O)NC)S(=O)(=O)N1CCCCCC1
system name: Trypanosoma cruzi
Percent Effect (%): -0.489
//
compound: Cc1cccc(-n2cc(C(=O)N3CCn4c(C)nnc4C3)nn2)c1
system name: Trypanosoma cruzi
Percent Effect (%): -4.17
//
compound: Cc1cnn(CCNCc2ccccc2Oc2cccnc2)c1
system name: Trypanosoma cruzi
Percent Effect (%): -5.03

For every listed record, write down its Percent Effect.
1. CCc1ncncc1C(=O)NCCN1CCC(C)CC1
2. CC(C)CCN1CC2(CCCN(C(=O)c3cscn3)C2)CCC1=O (configuration not stated)
3. Cc1cc(C)n(CC(=O)N2CCC(NS(C)(=O)=O)CC2)n1
4. O=C(c1cnoc1)N1CCC[C@]2(C[C@@H](OCc3ccccn3)CO2)C1
5. Cc1nnn2c1COCC(CNC(=O)c1ccc3[nH]ccc3c1)C2 (configuration not stated)
6. COc1cc2nc3n(c(=O)c2cc1OC)CCN(C)CC3

Reply:
1: 5.54; 2: 4.82; 3: -1.69; 4: 5.56; 5: 9.73; 6: -3.56

Batch of 3 compounds: report Percent Effect for each.
1. Cc1cc(=O)n2ncnc2n1CC(O)c1cc(F)ccc1F (configuration not stated)
2. CNC(=O)c1cc2c(nc1NCC(C)C)CCN(S(=O)(=O)C1CC1)CC2
3. Cc1nc(CN2CCC(C(=O)O)(n3ccc(-c4ccco4)n3)CC2)co1

Reply:
5.55
-3.23
0

* * *

Please respond with reported Percent Effect for every item in the list.
molecular target: Chromo domain-containing protein 1 (Saccharomyces cerevisiae (strain ATCC 204508 / S288c) (Baker's yeast)); test: ScCHD-1 Enzyme Inhibition Assay; format: functional; set-up: scale not given: in the data most compounds retested in dose-response had high values; conditions: 30 µM
Numbers only, in %.

Below: 6 compounds and their reported Percent Effect.
compound: COc1ccc(CC(=O)N(C)Cc2nnc3ccccn23)cc1
Percent Effect [%]: 77.9

compound: O=C(Cc1ccc2c(c1)CCCC2)NCCc1ccccn1
Percent Effect [%]: -7.01

compound: CCc1ccc(C(=O)N2CCN(CC(C)O)CC2)o1 (stereo not given)
Percent Effect [%]: -12.7

compound: CCN(C)c1ccc(C(=O)N(CCOC)Cc2ccccn2)cc1
Percent Effect [%]: -5.22

compound: O=C(c1ccccn1)N1C[C@@H]2CC[C@H](C1)N(C(=O)CCc1ccsc1)C2
Percent Effect [%]: -2.49

compound: Cc1ccc(CN(Cc2cccnc2)C2CC(C)(C)NC(C)(C)C2)s1
Percent Effect [%]: -9.11

Look up Percent Effect for the entries below, preserving their order.
1. COCCc1noc(CN2CCN(CC(O)c3ccccc3)CC2)n1 (stereo not given)
2. CCc1nc(C2CCCN2CC(=O)Nc2c(C)nn(C)c2C)no1 (stereo not given)

Reply:
[-14.9, 1.02]

Dear reader, for each entry below, please note its Percent Effect.
1. O=C1N(Cc2ccccc2F)CCCC12CCN(C1CCSCC1)C2 (stereo not given)
2. COc1ccc2cc(C(=O)N3CCCCC3CC(N)=O)[nH]c2c1 (stereo not given)

Reply:
[0.67, -4.84]

* * *

Answer each item with its documented Percent Effect.
organism: Homo sapiens; experiment: To identify inhibition of the IFN signalling (Jak-Stat) pathway via expression of an eGFP reporter gene under the control of an IFN-stimulated response element (ISRE) containing MxA promoter.; assay type: functional; design: scale not given: direction of the effect not stated beside the values; details: 30 µM
Answers are plain numbers, in %.

# example entries with known answers
molecule: Cc1occc1C(=O)N1CCC2(CC1)NC(=O)CC2c1cnn(C)c1 (centres undefined)
measurement units: %
Percent Effect: -9.35

molecule: CS(=O)(=O)N1CCC(C(=O)NC(Cc2ccsc2)c2nccs2)CC1 (centres undefined)
measurement units: %
Percent Effect: 12.9

molecule: Cc1nc(NCc2cccnc2)c2c(n1)c(C)nn2C
measurement units: %
Percent Effect: 31

Please give Percent Effect, item by item, for the list that follows.
1. Cc1ccc(C(=O)N2CCn3cc(CN4CCCCC4)nc3C2)o1
2. Cc1cccc(C(=O)NCc2ccnc(N(C)C)c2)n1
3. Cc1cnn(CCC(=O)N2CCCN(c3ncccc3C#N)CC2)c1

Reply:
1. 1.99
2. 15.9
3. -1.81

* * *

organism: Homo sapiens; test: To identify inhibition of the IFN signalling (Jak-Stat) pathway via expression of an eGFP reporter gene under the control of an IFN-stimulated response element (ISRE) containing MxA promoter.; type: functional; set-up: scale not given: direction of the effect not stated beside the values; settings: 30 µM
I would appreciate it if you labelled entries True when Percent Effect is 10% or higher, otherwise False.

Record excerpt, results attached:
compound: Cc1nc(Nc2ncccn2)cc(C2CCCN2C2CCOCC2)n1 (stereo not given)
classification: True

compound: CNC(=O)CS(=O)(=O)C1CCN(S(=O)(=O)C2CC2)CC1
classification: False

compound: CCCc1n[nH]c(C2CN(C(=O)c3cc(F)ccc3OC)CCO2)n1 (stereo not given)
classification: False

compound: CC(C)S(=O)(=O)NCC1CCCN(C(=O)c2cccnc2)C1 (stereo not given)
classification: True

Task item: Item CCSCCNC(=O)C(c1cccc(C)c1)N(C)C (stereo not given) with Percent Effect of 10% or above?
Reply: True

Task item: Another compound: CN(Cc1nnc(C2CC2)n1C)C1CCN(Cc2ccccc2F)C1 (stereo not given)
Reply: False

Task item: Check COc1ccc(C(=O)Nc2cnn(CC(=O)NC3CCCC3)c2)c(O)c1 too.
Reply: False

* * *

target: AMP-activated protein kinase, AMPK (Homo sapiens) (UniProt P54646+O43741+P54619+Q9UGJ0+Q9Y478+Q13131+Q9UGI9); assay: AMP-dependent Kinase enzyme assay. An in vitro enzyme assay that detects ADP turnover that is directly proportional to AMPK activity. This uses naive AMPK that is activated during the assay with MK-8722; type: functional; design: scale not given: direction of the effect not stated beside the values; conditions: 30 µM
Task for the reader: assign each of the following compounds its reported Percent Effect.
Answers are plain numbers, in %.

Sample records with Percent Effect:
compound: COc1cccc(CNCc2nnc3n2CC(C(F)(F)F)CC3)c1 (stereo unspecified)
reported metric: Percent Effect
measured result: -0.757
--
compound: COc1ncccc1C(=O)N1CCCC(c2cc(C)[nH]n2)C1 (stereo unspecified)
reported metric: Percent Effect
measured result: -0.772
--
compound: CCc1c(C)nc2n(c1=O)CC(C(=O)Nc1nccs1)CS2 (stereo unspecified)
reported metric: Percent Effect
measured result: -4.33
--
compound: COCCn1ccc2cc(NC(C)=O)ccc21
reported metric: Percent Effect
measured result: -9.22
--
compound: CS(=O)(=O)NCCC(=O)NC1CCc2nccn2C1 (stereo unspecified)
reported metric: Percent Effect
measured result: -6.45

For every item in the list below, what is its measured Percent Effect?
1. Cc1cc(C(=O)N2Cc3ccccc3OC3(CCOCC3)C2)nc(N)n1
2. O=C1NCCN1C1CCN(CCc2cccs2)CC1
3. Cc1ccc(CN2Cc3nnn(C)c3C(COCCN(C)C)C2)s1 (stereo unspecified)
4. Cc1cc(N2CCN(C(=O)c3cc(Cl)c[nH]3)CC2)nc(N)n1
5. O=C(CN1CCCCC1Cn1cncn1)NCCc1ccc(F)cc1 (stereo unspecified)
6. O=C1CC(c2cccs2)c2snc(C(=O)O)c2N1 (stereo unspecified)

Reply:
1: 1.22; 2: -1.15; 3: -1.39; 4: -3.11; 5: -4.02; 6: -2.53
